Test system: A498 renal
test name: NCI-60 one-dose screen, 48 h (100 = growth as untreated, 0 = no growth, -100 = all killed)
experimental conditions: 10 µM unless noted
Compounds without any hit were thinned out: in the full panel of roughly 83,000, 20% have a hit.
I'd appreciate it if you could supply growth values for the items below.
Report the value in % with no unit label.

Problem: Return growth (reported value) for this molecule: Cc1n(Cc2ccc3ccccc3c2)c(Cl)c(Cl)[n+]1Cc1ccc2ccccc2c1
Result: 40.3

Problem: Specify measured growth for CC(Sc1ccccc1)C(=O)O (configuration not stated) .
Result: 88.7

Problem: Look up growth of Cc1ccc(-c2nc3nc(-c4ccc(F)cc4)nc(N4CCCNCC4)c3o2)cc1 and report it.
Result: 77.5

Problem: Complete the entry with growth for O=C(Oc1ccc(CO[N+](=O)[O-])cc1)c1ccccc1
Result: -71.5

Problem: State its growth: O=C1/C(=C/c2cn(-c3ccccc3)nc2-c2ccccc2)SC(=S)N1c1ccc(Cl)cc1
Result: 67

Problem: Give recorded growth. C/C=C(\C)C(=O)N[C@H]1CC[C@]2(C)C3CC[C@@]4(C)C(CC[C@@H]4C(C)N(C)C)C3CCC2[C@H]1OC(C)=O (some centres not stated)
Result: -32.9

Problem: Give the reported value of growth for this record: c1ccc(-c2cc(-c3cc(-c4ccccc4)on3)no2)cc1
Result: 97.6

Problem: Determine from records and report growth for Nc1nc(Cl)nc2c1ncn2C1OC(CO)C(O)C1O (configuration not stated)
Result: 96.6

Problem: Please report growth for the following molecule: Cc1ccc(C(=O)Nc2nc3c(s2)CN(Cc2ccccc2)CC3)cn1
Result: 89.9

Problem: For the molecule COc1ccc(/C(C)=C(\c2ccc(OCCN3CCCCCC3)cc2)c2ccc(OC(=O)C3CCCCC3)cc2)cc1 , give its reported growth.
Result: -3.54

Problem: Assign growth to the following record: CCN1CCN(C(=O)[C@]23CC[C@@H](C)[C@H](C)[C@@H]2C2=CC[C@@H]4[C@@]5(C)CCC(=O)C(C)(C)[C@@H]5CC[C@@]4(C)[C@]2(C)CC3)CC1
Result: -17.8

Problem: Quick one: give measured growth for O=c1oc2c(Br)cc(Br)cc2cc1-c1cc(-c2ccc(-c3cc(-c4cc5cc(Br)cc(Br)c5oc4=O)nc(-c4cc5cc(Br)cc(Br)c5oc4=O)c3)cc2)cc(-c2cc3cc(Br)cc(Br)c3oc2=O)n1
Result: 95.9

---

Test system: OVCAR-4 ovarian
test name: NCI-60 one-dose screen, 48 h (100 = growth as untreated, 0 = no growth, -100 = all killed)
experimental conditions: 10 µM unless noted
This is part of a sample that, as a whole, favours compounds with a hit. Of some 83,000 tested, about 20% had one in any assay.
Could you please report measured growth for the items listed next?
Field format: number, assumed %, no unit text.

Problem: Look up growth of COc1cc(/C=C(/c2ccccc2)[N+](=O)[O-])c(OC)c2c1OCO2 and report it.
Result: -25.9

Problem: Give reported growth value for Clc1ccc2c(NCCN3CCN(c4ccnc(N5CCCC5)n4)CC3)ccnc2c1
Result: 57.8

Problem: Please supply the value of reported growth for the item Cc1ccc(-c2nc([P+](c3ccccc3)(c3ccccc3)c3ccccc3)c(Nc3ccccc3)o2)cc1
Result: -5.24

Problem: Tell me its growth given N#Cc1ccccc1OCC(=O)Nc1nc2c(s1)COc1ccccc1-2 as the entry.
Result: 99.1

Problem: Return value of growth for input Cc1ccc(-c2nc3nc(-c4ccc(F)cc4)nc(N4CCCNCC4)c3o2)cc1 , no commentary.
Result: -89

Problem: # return recorded growth for input Nc1nc(N)c2c(n1)NC(c1cccc(Nc3ccnc4cc(C(F)(F)F)ccc34)c1)CC(c1ccc(F)cc1)=N2 (stereo not drawn)
Result: 57.9

Problem: Write down growth measured for item CCCCC1COc2cccc3c2N1C=C/C3=C\C(=O)N(C)c1cccc(Cl)c1 (stereo not drawn)
Result: 72.8

Problem: Using known records, supply growth for O=C1Nc2ccccc2/C1=C/c1cccn1CCCCCn1c2ccccc2c(=O)c2ccccc21
Result: 57.1

---

Test system: SK-MEL-28 melanoma
test name: NCI-60 one-dose screen, 48 h (100 = growth as untreated, 0 = no growth, -100 = all killed)
experimental conditions: 10 µM unless noted
About 83,000 compounds went through this panel and 20% of them were active in at least one assay; those are over-represented in the sample as a whole.
assay readout: growth (%)
Entry rule: numbers only, all in %.

Problem: Answer briefly: growth recorded on SK-MEL-28 melanoma for Cc1ccc(Nc2nc(-c3cc(O)c(C)c(C)c3O)cs2)cc1
Result: 115

Problem: Provide SK-MEL-28 melanoma growth reading for O=C([C@H]1C[C@H]1c1ccc(S(F)(F)(F)(F)F)cc1)N1CCN(c2cc(Cl)ccc2C(F)(F)F)CC1 .
Result: 97.1

Problem: Find growth for CCCCCCCCCCCCCCCCCCn1cc(COc2ccc(C=O)cc2)nn1 on SK-MEL-28 melanoma and write it down.
Result: 109

---

Test system: KM12 colon
test name: NCI-60 one-dose screen, 48 h (100 = growth as untreated, 0 = no growth, -100 = all killed)
experimental conditions: 10 µM unless noted
Procedure: Growth inhibition of the KM12 human tumor cell line is measured as a screen for anti-cancer activity. Cells are grown in 96 well plates and exposed to the test compound for 48 hours. Compounds are tested at a single concentration, which is 10^-5 M for most compounds. The reported endpoint is percent growth (GI% or GIPRCNT), where numbers from 0 - 100% represent growth inhibition, and numbers from -100% - 0 represent cell death. For example, a value of 40 represents 60% growth inhibition. […]
The panel holds about 83,000 compounds, 20% with a hit somewhere; the sample as a whole holds those more often. Calls of active or inactive are those of the source. The calls were made as follows: active = growth percent below 10; inactive = the rest.
assay readout: growth

Problem: Quick one: give measured growth for Cc1cc2nc(C(Cl)Cl)nc(-c3ccc(Cl)cc3)n2n1
Result: -27.2% (active)

Problem: Consider the compound N#CC1=C(N)Oc2c(sc3c(Br)cccc23)C1c1ccccn1 (stereo not given) and give its recorded growth.
Result: 34.9% (inactive)

Problem: State its growth for this compound: C=C1CC[C@@H]2[C@](C)(COC(C)=O)[C@H](OC(C)=O)CC[C@@]2(C)[C@@H]1CC(Nc1ccc(S(=O)(=O)Nc2nccs2)cc1)C1=CCOC1=O (stereo not given in full)
Result: -0.895% (active)

Problem: Provide measured growth value, entry: CCOC(=O)c1c(-c2ccc(C)cc2)c(C#N)c(=O)n(-c2cccc(C(F)(F)F)c2)c1N
Result: 100% (inactive)

Problem: Supply growth value. Item: O=C(/C=C/c1ccc([N+](=O)[O-])cc1)c1ccccc1
Result: 57% (inactive)

Problem: Return the recorded growth value; entry: Nc1nc(N)c2c(n1)NC(c1ccc(Cl)cc1)CC(c1cccc(Nc3ccncc3)c1)=N2 (stereo not given)
Result: 63.7% (inactive)

Problem: Report measured growth; entry is COc1ccc(/C=N/NC(=O)CN2CCN(c3cc4c(cc3F)c(=O)c(C(=O)O)cn4C3CC3)CC2)cc1O
Result: 102% (inactive)

Problem: Note growth for the compound shown: N#CC(Cc1cccc2ccccc12)c1cc2ccccc2[nH]1 (stereo not given)
Result: 88% (inactive)

Problem: Check the records and state growth for N=c1c2c(-c3ccccc3)c(-c3ccccc3)oc2ncn1NC(=O)c1cccnc1
Result: 95.6% (inactive)

Problem: Return the recorded growth value; entry: CCCCC1COc2cccc3c2N1C=C/C3=C\C(=O)N(C)c1cccc(Cl)c1 (stereo not given)
Result: 105% (inactive)

Problem: Give the reported growth for this compound. CC(C)=CCc1cc(O)c(O)c2oc3cc(O)cc(O)c3c(=O)c12
Result: 59.8% (inactive)

Problem: Read off the recorded growth for CCCCCCCCCCCCCCCCCCOc1cccc(CC(=O)OCC[N+](CC)(CC)CC)c1
Result: 83.3% (inactive)

Problem: Give a short answer stating reported growth for O=C1/C(=C/c2ccc(F)c(F)c2)CN(C(=O)C(Cl)Cl)C/C1=C\c1ccc(F)c(F)c1 .
Result: -89.2% (active)

Problem: Tell us which growth value is on record for O=C1C(Nc2ccc(Cl)cc2)=C(I)C(=O)c2ncccc21
Result: 39.8% (inactive)

Problem: Indicate the recorded growth value for this compound: Cc1ccc(S(=O)(=O)OC[C@@]2(C)CC[C@]3(C)CC[C@]4(C)C(=C3C2)C=C[C@@H]2[C@@]3(C)CCCNC(C)(C)[C@@H]3CC[C@]24C)cc1
Result: -75.8% (active)

---

Would you kindly list growth for each of these molecules?
Test system: M14 melanoma
test name: NCI-60 one-dose screen, 48 h (100 = growth as untreated, 0 = no growth, -100 = all killed)
experimental conditions: 10 µM unless noted
The panel holds about 83,000 compounds, 20% with a hit somewhere; the sample as a whole holds those more often.
Dear colleague, please return just the value in %, with no unit written.

Problem: State growth on M14 melanoma. Entry: O=S(=O)(Nc1ccc(F)cc1)c1ccc(-c2cnc(C3CC3)o2)cc1
Result: 12.2

Problem: Output reported growth of the molecule Cn1cc(-c2nc3c(F)cc4[nH]ncc4c3c3c2CCCC3)c(C(F)F)n1 on M14 melanoma.
Result: 53.4

Problem: Print M14 melanoma growth for CN1C(=O)N(C)C2(c3ccccc3)N(CC(=O)Nc3ccccc3O)C(=O)NC12c1ccccc1 (stereo unspecified) .
Result: 105

Problem: Send back M14 melanoma growth of C=C(CNCCO)[C@@H]1CC[C@]2(CO)CC[C@]3(C)[C@H](CC[C@@H]4[C@@]5(C)CCC(NCCc6ccc(O)cc6)C(C)(C)[C@@H]5CC[C@]43C)[C@@H]12 (stereo partly specified) only.
Result: -91.6

Problem: With M14 melanoma as the test system, provide measured growth for this molecule: COc1cc2nc3cc([N+](=O)[O-])ccc3c(NCCNCC(C)(C)O)c2cc1OC
Result: -75.7

Problem: Give growth for Cc1cc(N2CCN(CC(=O)Nc3ccc4c(ccn4Cc4ccccc4)c3)CC2)nc(N2CCCCCC2)n1 tested on M14 melanoma.
Result: -7.84

Problem: Fill: growth (M14 melanoma) for this molecule CC1(C)C(N)=Nc2cc(OCCCN3Cc4ccc(OCCc5cn(CC(=O)N6CCC(CCN7CCCC7)CC6)nn5)cc4C3)c(OCC3CC3)cc21
Result: 108

Problem: Provide growth, tested on M14 melanoma, for O=C1CCCCN1CCCCC#Cc1cccc(C#Cc2cccnc2)c1 .
Result: 105

Problem: For M14 melanoma, give the measured growth of the entry Nc1ccc(/C=N/Nc2ccnc3c(N)cccc23)c2cccnc12
Result: -78.6

Problem: Return reported growth for target or system M14 melanoma, item COc1cc(/C=C(/c2ccccc2)[N+](=O)[O-])c(OC)c2c1OCO2 .
Result: 11.9

Problem: Give growth only, for N=C(N)c1ccc(-c2ccc(-c3ccc(Cl)c(Cl)c3)s2)cc1 , using M14 melanoma data.
Result: 38.1

Problem: # lookup: M14 melanoma growth, key = O=C1C(Nc2ccc(Cl)cc2)=C(I)C(=O)c2ncccc21
Result: -3.93

Problem: // fetch growth for O=C(CCN1CCOCC1)Nc1cccc(-n2cc(-c3ccncc3)c(-c3ccc(Cl)c(O)c3)n2)c1 ; system: M14 melanoma
Result: 5.06

Problem: State the measured growth (M14 melanoma) of Cc1n(Cc2ccc3ccccc3c2)c(Cl)c(Cl)[n+]1Cc1ccc2ccccc2c1
Result: 10.9

Problem: Send back M14 melanoma growth of Fc1ccccc1-c1cnn2cc(-c3ccccc3)cnc12 only.
Result: 105

Problem: Quote M14 melanoma growth for entry COc1ccc2c(O)c(/C=C3\N=Nc4nc(C)ccc43)oc2c1CC1CCNCC1 .
Result: 35.4
